- Tested on: T-Rex 293 cell line SC3 cells lacking increased expression of androgen receptor protein
- MEASUREMENT_DESCRIPTION: Cellular growth inhibition assay, T-Rex 293 SC3 cells without doxycycline (CellTiter-Glo, 72 hours)
- Assay type: cell-based
- TEST_CONDITIONS: 72 h, T-Rex 293 cell line SC3 cells not exposed to doxycycline (lacking increased androgen receptor expression)
PARAMETER_MEASURED: GI50

Q: Provide GI50 value for the following molecule: Cc1sc2c(c1C)C(c1ccc(N3CCC4(CC3)CCN(c3ccc(C(=O)N[C@H]5CC[C@H](Oc6ccc(C#N)c(Cl)c6)CC5)nn3)C4)cn1)=NC1(CC1)c1nnc(C)n1-2 [I-502]
Result: > 3000 nM

Q: Please report the measured GI50 for CC1=NN=C2C1c1sc(C)c(C)c1C(c1ccc(N3C[C@@H]4CN(c5ccc(C(=O)N[C@H]6CC[C@H](Oc7ccc(C#N)c(Cl)c7)CC6)nn5)C[C@@H]4C3)cc1)=NC21CC1 (stereo partly shown) [I-505]
Result: > 3000 nM

Q: Give reported GI50 value for CCNC(=O)C[C@@H]1N=C(c2ccc(OC3CC(N(C)C4CCN(c5ccc(C(=O)N[C@H]6CC[C@H](Oc7ccc(C#N)c(Cl)c7)CC6)nn5)CC4)C3)cc2)c2c(sc(C)c2C)-n2c(C)nnc21 (stereo partly shown) [I-46]
Result: 500 to 1500 nM
